- Tested on: SW-620 colon
- Protocol Summary: NCI-60 one-dose screen, 48 h (100 = growth as untreated, 0 = no growth, -100 = all killed)
- Condition Parameters: 10 µM unless noted
About 83,000 compounds went through this panel and 20% of them were active in at least one assay; those are over-represented in the sample as a whole.
Listed compounds paired with reported growth
Could you give me the number in %? Just the number is fine.

Consider the reported growth for these compounds:
In [3]: df
Out[3]:
                                 cpd_smiles  target_or_test_system  quantity  endpoint_result
0  C=CC(=O)N[C@H](Cc1ccc(-c2cc(Cl)cc(Cl)c2)cc1)[C@H](O)[C@@H](O)C(=O)O           SW-620 colon    growth             98.1
1                    Cc1nnc2nc(N)[nH]n2c1=O           SW-620 colon    growth              107

Lookup result for C=C1C(=O)O[C@H]2[C@H]1CC/C(COC(=O)NCc1c[nH]c3ccccc13)=C\CC[C@@]1(C)O[C@@H]21 ; measured growth: 2.62

Lookup result for Fc1ccc(NCc2nnc(-c3ccc(Cl)cc3)o2)cc1 ; measured growth: 90.4

Lookup result for Fc1cccc(-c2[nH]nc3nc(Nc4cccnc4)sc23)c1 ; measured growth: 41.6

Lookup result for Cc1ccc2c(c1)c(-c1nc(-c3c[nH]c4ncccc34)cs1)cn2C ; measured growth: 112

---

- System: CCRF-CEM leukemia
- Protocol Summary: NCI-60 one-dose screen, 48 h
- Condition Parameters: 10 µM unless noted
This is part of a sample that, as a whole, favours compounds with a hit. Of some 83,000 tested, about 20% had one in any assay. The source made the active and inactive calls. How the source made its calls: active means growth percent below 10; inactive means the rest.
Outcomes you can answer with include only these: class 1 for active, class 0 for inactive

Check out these entries, answers already filled in.
>>> df
                                   compound  assigned_category
0  N=c1c(S(=O)(=O)c2ccccc2)cc2c(=O)n3ccccc3nc2n1C1CCCC1            class 0
1  C[N+](C)(CCCCCC[N+](C)(C)C1c2ccccc2-c2ccccc21)C1c2ccccc2-c2ccccc21            class 0
2  COc1ccc(C2C(C#N)=C(N)Oc3c2sc2c(F)cccc32)cc1 (centres undefined)            class 0
3  COc1ccc(-n2c(/C=C/c3ccc(O)c(OC)c3)cc(/C=C/c3ccc(O)c(OC)c3)nc2=O)cc1            class 0
4  COc1cccc(-c2nn(-c3ccccc3)cc2-c2ccnc(NCCNS(=O)(=O)c3cccc(F)c3)c2)c1            class 0
5        N=c1ccc2nc3c(cc(N)c4ccccc43)oc-2c1            class 1

Per the records of this test, what outcome belongs to COc1ccc2c(c1)c1nc3cc(C)c(C)cc3nc1n2CCN(C)C ?
class 1

Per the records of this test, what outcome belongs to COC(=O)C(N)CSC(c1ccccc1)(c1ccccc1)c1ccccc1 (centres undefined) ?
class 0

Per the records of this test, what outcome belongs to COc1cc(/C=C/c2cc(/C=C/c3ccc(O)c(OC)c3)n(-c3ccc(Cl)cc3)c(=O)n2)ccc1O ?
class 0

---

- Test system: OVCAR-4 ovarian
- Protocol Summary: NCI-60 one-dose screen, 48 h (100 = growth as untreated, 0 = no growth, -100 = all killed)
- Condition Parameters: 10 µM unless noted
- Procedure: Growth inhibition of the OVCAR-4 human tumor cell line is measured as a screen for anti-cancer activity. Cells are grown in 96 well plates and exposed to the test compound for 48 hours. Compounds are tested at a single concentration, which is 10^-5 M for most compounds. The reported endpoint is percent growth (GI% or GIPRCNT), where numbers from 0 - 100% represent growth inhibition, and numbers from -100% - 0 represent cell death. For example, a value of 40 represents 60% growth inhibition. […]
About 83,000 compounds went through this panel and 20% of them were active in at least one assay; those are over-represented in the sample as a whole.
Using growth as the sorting value, the categories are bucket 1 = under 10%, bucket 2 = from 10% up to 80%, bucket 3 = 80% and over

Compound	Assigned Category
c1ccc(-c2nc(Nc3ccc(-c4nc5ccccc5[nH]4)cc3)nc(N3CCOCC3)n2)cc1	bucket 1
CCN1CCN(C(=O)[C@]23CC[C@@H](C)[C@H](C)[C@H]2C2=CC[C@@H]4[C@@]5(C)C/C(=C/c6cccc(OC)c6OC)C(=O)C(C)(C)[C@@H]5CC[C@@]4(C)[C@]2(C)CC3)CC1	bucket 2

Kindly state the category for this compound: O=c1c(CNc2ccc(S(=O)(=O)Nc3ncccn3)cc2)coc2ccccc12
bucket 3

Kindly state the category for this compound: COc1ccc(/C(=C\c2ccc3c(c2)OCO3)C(=O)Nc2nc3ccccc3s2)cc1OC
bucket 3

Kindly state the category for this compound: COc1ccc(-c2nc3ccccn3c2-c2nc3ccc(Cl)cc3[nH]2)cc1
bucket 3

Kindly state the category for this compound: COc1ccc2c3c(c4ccccc4cc13)C(=O)N(CCN(C)CCN)C2=O
bucket 1
